# Test system: chimeric Caspase-9 polypeptide
# Sequence (as listed by the source, change not shown): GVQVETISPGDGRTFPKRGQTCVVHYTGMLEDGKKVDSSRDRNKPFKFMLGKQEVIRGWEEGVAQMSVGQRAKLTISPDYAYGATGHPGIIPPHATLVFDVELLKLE
# PROTOCOL_SUMMARY: Caspase mutant classes and basal activity (Table 3)
# Format: cell-based, human
# CONDITION_PARAMETERS: class heading of Table 3
READOUT: Basal Activity

[[record]]
molecule = "G402Q (protein) GFGDVGALESLRGNADLAYILSMEPCGHCLIINNVNFCRESGLRTRTGSNIDCEKLRRRFSSLHFMVEVKGDLTAKKMVLALLELAQQDHGALDCCVVVILSHGCQASHLQFPGAVYGTDGCPVSVEKIVNIFNGTSCPSLGGKPKLFFIQACGGEQKDHGFEVASTSPEDESPGSNPEPDATPFQEGLRTFDQLDAISSLPTPSDIFVSYSTFPGFVSWRDPKSGSWYVETLDDIFEQWAHSEDLQSLLLRVANAVSVKGIYKQMPQCFNFLRKKLFFKTS"
result = "dead"

[[record]]
molecule = "L329E (protein) GFGDVGALESLRGNADLAYILSMEPCGHCLIINNVNFCRESGLRTRTGSNIDCEKLRRRFSSLHFMVEVKGDLTAKKMVLALLELAQQDHGALDCCVVVILSHGCQASHLQFPGAVYGTDGCPVSVEKIVNIFNGTSCPSLGGKPKLFFIQACGGEQKDHGFEVASTSPEDESPGSNPEPDATPFQEGLRTFDQEDAISSLPTPSDIFVSYSTFPGFVSWRDPKSGSWYVETLDDIFEQWAHSEDLQSLLLRVANAVSVKGIYKQMPGCFNFLRKKLFFKTS"
result = "Decreased"

[[record]]
molecule = "N405Q (protein) GFGDVGALESLRGNADLAYILSMEPCGHCLIINNVNFCRESGLRTRTGSNIDCEKLRRRFSSLHFMVEVKGDLTAKKMVLALLELAQQDHGALDCCVVVILSHGCQASHLQFPGAVYGTDGCPVSVEKIVNIFNGTSCPSLGGKPKLFFIQACGGEQKDHGFEVASTSPEDESPGSNPEPDATPFQEGLRTFDQLDAISSLPTPSDIFVSYSTFPGFVSWRDPKSGSWYVETLDDIFEQWAHSEDLQSLLLRVANAVSVKGIYKQMPGCFQFLRKKLFFKTS"
result = "Decreased"

[[record]]
molecule = "F404S (protein) GFGDVGALESLRGNADLAYILSMEPCGHCLIINNVNFCRESGLRTRTGSNIDCEKLRRRFSSLHFMVEVKGDLTAKKMVLALLELAQQDHGALDCCVVVILSHGCQASHLQFPGAVYGTDGCPVSVEKIVNIFNGTSCPSLGGKPKLFFIQACGGEQKDHGFEVASTSPEDESPGSNPEPDATPFQEGLRTFDQLDAISSLPTPSDIFVSYSTFPGFVSWRDPKSGSWYVETLDDIFEQWAHSEDLQSLLLRVANAVSVKGIYKQMPGCSNFLRKKLFFKTS"
result = "dead"

